System: SK-MES-1
Assay Method Text: relative viability (nuclei count vs DMSO), 5 days (fraction); higher = more cells survive
Test Settings: first compound 0.253 µM
Test Readout: relative viability
The response must contain the number and no unit.

Observe how each entry below is paired with its result.
O=c1[nH]c2ccccc2n1C1CCN(CCCC(c2ccc(F)cc2)c2ccc(F)cc2)CC1 [Pimozide] + CC1(C)CCC(c2ccc(Cl)cc2)=C(CN2CCN(c3ccc(C(=O)NS(=O)(=O)c4ccc(N[C@H](CCN5CCOCC5)CSc5ccccc5)c(S(=O)(=O)C(F)(F)F)c4)cc3)CC2)C1 [Navitoclax] (partner 0.5 µM); 1.25
Cc1cnc(-c2cnc(NCCNc3ccc(C#N)cn3)nc2-c2ccc(Cl)cc2Cl)[nH]1 + CC(=O)Nc1cccc(-n2c(=O)n(C3CC3)c(=O)c3c(Nc4ccc(I)cc4F)n(C)c(=O)c(C)c32)c1 [Trametinib] (partner 0.02 µM); 0.54
O=c1[nH]c2ccccc2n1C1CCN(CCCC(c2ccc(F)cc2)c2ccc(F)cc2)CC1 [Pimozide] + O=C(CCCCCCC(=O)Nc1ccccc1)NO [Vorinostat] (partner 1 µM); 1.02

Which relative viability is reported for this molecule? Cc1cnc(-c2cnc(NCCNc3ccc(C#N)cn3)nc2-c2ccc(Cl)cc2Cl)[nH]1 + CC1(C)CCC(c2ccc(Cl)cc2)=C(CN2CCN(c3ccc(C(=O)NS(=O)(=O)c4ccc(N[C@H](CCN5CCOCC5)CSc5ccccc5)c(S(=O)(=O)C(F)(F)F)c4)cc3)CC2)C1 [Navitoclax] (partner 0.5 µM)
1.14

Quick check: relative viability of O=c1[nH]c2ccccc2n1C1CCN(CCCC(c2ccc(F)cc2)c2ccc(F)cc2)CC1 [Pimozide] + CC(=O)c1c(C)c2cnc(Nc3ccc(N4CCNCC4)cn3)nc2n(C2CCCC2)c1=O [Palbociclib] (partner 0.5 µM) ?
0.298

Could you share which relative viability value was measured for Cc1cnc(-c2cnc(NCCNc3ccc(C#N)cn3)nc2-c2ccc(Cl)cc2Cl)[nH]1 + Nc1nc2[nH]cc(CCc3ccc(C(=O)N[C@@H](CCC(=O)O)C(=O)O)cc3)c2c(=O)[nH]1 [Pemetrexed] (partner 0.2 µM) ?
0.895

====

Test system: LCLC-103H
Assay Method Text: relative viability (nuclei count vs DMSO), 5 days (fraction); higher = more cells survive
Test Settings: first compound 0.006325 µM
Examples of compounds with documented relative viability follow.
Please reply with the number alone, leaving off any unit.

// lookup relative viability | system=LCLC-103H | key= CC(=O)O[C@@]12CO[C@@H]1C[C@H](O)[C@@]1(C)C(=O)[C@H](O)C3=C(C)[C@@H](OC(=O)[C@H](O)[C@@H](NC(=O)OC(C)(C)C)c4ccccc4)C[C@@](O)([C@@H](OC(=O)c4ccccc4)[C@H]21)C3(C)C [Docetaxel] + COc1cccc2cc(-c3nc([C@H]4CC[C@H](C(=O)O)CC4)n4ncnc(N)c34)[nH]c12 [OSI-027] (partner 0.5 µM)
0.414

Form: Entry = CC(=O)O[C@@]12CO[C@@H]1C[C@H](O)[C@@]1(C)C(=O)[C@H](O)C3=C(C)[C@@H](OC(=O)[C@H](O)[C@@H](NC(=O)OC(C)(C)C)c4ccccc4)C[C@@](O)([C@@H](OC(=O)c4ccccc4)[C@H]21)C3(C)C [Docetaxel] + Nc1ncn([C@H]2C[C@H](O)[C@@H](CO)O2)c(=O)n1 [Decitabine] (partner 2 µM) | System = LCLC-103H | relative viability = ____
0.713

Checklist item: relative viability tested on LCLC-103H, entry CC(=O)O[C@@]12CO[C@@H]1C[C@H](O)[C@@]1(C)C(=O)[C@H](O)C3=C(C)[C@@H](OC(=O)[C@H](O)[C@@H](NC(=O)OC(C)(C)C)c4ccccc4)C[C@@](O)([C@@H](OC(=O)c4ccccc4)[C@H]21)C3(C)C [Docetaxel] + NC(=O)Nc1cc(-c2cccc(F)c2)sc1C(=O)N[C@H]1CCCNC1 [AZD7762] (partner 0.2 µM) , value?
0.508

So what relative viability did CC(=O)O[C@@]12CO[C@@H]1C[C@H](O)[C@@]1(C)C(=O)[C@H](O)C3=C(C)[C@@H](OC(=O)[C@H](O)[C@@H](NC(=O)OC(C)(C)C)c4ccccc4)C[C@@](O)([C@@H](OC(=O)c4ccccc4)[C@H]21)C3(C)C [Docetaxel] + CC(=O)c1c(C)c2cnc(Nc3ccc(N4CCNCC4)cn3)nc2n(C2CCCC2)c1=O [Palbociclib] (partner 0.5 µM) get with LCLC-103H?
0.598

====

Tested on: A-427
Assay Method Text: relative viability (nuclei count vs DMSO), 5 days (fraction); higher = more cells survive
Test Settings: first compound 0.1265 µM
Test Readout: relative viability
Would you mind answering with just the numeric figure?

// below: answered molecules
Cc1sc2c(c1C)C(c1ccc(Cl)cc1)=N[C@@H](CC(=O)OC(C)(C)C)c1nnc(C)n1-2 [JQ1] + CS(=O)(=O)CCNCc1ccc(-c2ccc3ncnc(Nc4ccc(OCc5cccc(F)c5)c(Cl)c4)c3c2)o1 [Lapatinib] (partner 2 µM); 0.916
Cc1sc2c(c1C)C(c1ccc(Cl)cc1)=N[C@@H](CC(=O)OC(C)(C)C)c1nnc(C)n1-2 [JQ1] + CC1(C)CCC(c2ccc(Cl)cc2)=C(CN2CCN(c3ccc(C(=O)NS(=O)(=O)c4ccc(N[C@H](CCN5CCOCC5)CSc5ccccc5)c(S(=O)(=O)C(F)(F)F)c4)cc3)CC2)C1 [Navitoclax] (partner 0.5 µM); 0.974
Cc1sc2c(c1C)C(c1ccc(Cl)cc1)=N[C@@H](CC(=O)OC(C)(C)C)c1nnc(C)n1-2 [JQ1] + CCNC(=O)c1noc(-c2cc(C(C)C)c(O)cc2O)c1-c1ccc(CN2CCOCC2)cc1 [Luminespib] (partner 0.01 µM); 0.97

Fill blank: measured relative viability of the molecule Cc1sc2c(c1C)C(c1ccc(Cl)cc1)=N[C@@H](CC(=O)OC(C)(C)C)c1nnc(C)n1-2 [JQ1] + C[C@]1(O)C[C@@H](c2nc(-c3ccc4ccc(-c5ccccc5)nc4c3)c3c(N)nccn32)C1 [Linsitinib] (partner 1 µM) is ____.
1.04

====

Overview of recorded relative viability for various molecules
System: UMC-11
Assay Method Text: relative viability (nuclei count vs DMSO), 5 days (fraction); higher = more cells survive
Test Settings: first compound 0.08 µM

Cc1cnc(-c2cnc(NCCNc3ccc(C#N)cn3)nc2-c2ccc(Cl)cc2Cl)[nH]1 + CC1(C)CCC(c2ccc(Cl)cc2)=C(CN2CCN(c3ccc(C(=O)NS(=O)(=O)c4ccc(N[C@H](CCN5CCOCC5)CSc5ccccc5)c(S(=O)(=O)C(F)(F)F)c4)cc3)CC2)C1 [Navitoclax] (partner 0.5 µM); 0.341

Kindly review the next molecule as well.
Recorded relative viability for Cc1cnc(-c2cnc(NCCNc3ccc(C#N)cn3)nc2-c2ccc(Cl)cc2Cl)[nH]1 + CC(C)C[C@H](NC(=O)[C@H](Cc1ccccc1)NC(=O)c1cnccn1)B(O)O [Bortezomib] (partner 0.002 µM) , please?
0.759

====

Test system: NCI-H838
Assay Method Text: relative viability (nuclei count vs DMSO), 5 days (fraction); higher = more cells survive
Test Settings: first compound 0.02 µM
Test Readout: relative viability
Reply: number alone, nothing else.

Worked cases, answers included:
CC(=O)O[C@@]12CO[C@@H]1C[C@H](O)[C@@]1(C)C(=O)[C@H](O)C3=C(C)[C@@H](OC(=O)[C@H](O)[C@@H](NC(=O)OC(C)(C)C)c4ccccc4)C[C@@](O)([C@@H](OC(=O)c4ccccc4)[C@H]21)C3(C)C [Docetaxel] + CCNC(=O)c1noc(-c2cc(C(C)C)c(O)cc2O)c1-c1ccc(CN2CCOCC2)cc1 [Luminespib] (partner 0.01 µM); 0.112
CC(=O)O[C@@]12CO[C@@H]1C[C@H](O)[C@@]1(C)C(=O)[C@H](O)C3=C(C)[C@@H](OC(=O)[C@H](O)[C@@H](NC(=O)OC(C)(C)C)c4ccccc4)C[C@@](O)([C@@H](OC(=O)c4ccccc4)[C@H]21)C3(C)C [Docetaxel] + C[C@@H](Oc1cc(-c2cnn(C3CCNCC3)c2)cnc1N)c1c(Cl)ccc(F)c1Cl [Crizotinib] (partner 1 µM); 0.124
CC(=O)O[C@@]12CO[C@@H]1C[C@H](O)[C@@]1(C)C(=O)[C@H](O)C3=C(C)[C@@H](OC(=O)[C@H](O)[C@@H](NC(=O)OC(C)(C)C)c4ccccc4)C[C@@](O)([C@@H](OC(=O)c4ccccc4)[C@H]21)C3(C)C [Docetaxel] + Nc1nc2[nH]cc(CCc3ccc(C(=O)N[C@@H](CCC(=O)O)C(=O)O)cc3)c2c(=O)[nH]1 [Pemetrexed] (partner 0.2 µM); 0.134

Now for a further compound.
Look up relative viability: CC(=O)O[C@@]12CO[C@@H]1C[C@H](O)[C@@]1(C)C(=O)[C@H](O)C3=C(C)[C@@H](OC(=O)[C@H](O)[C@@H](NC(=O)OC(C)(C)C)c4ccccc4)C[C@@](O)([C@@H](OC(=O)c4ccccc4)[C@H]21)C3(C)C [Docetaxel] + Nc1ncn([C@H]2C[C@H](O)[C@@H](CO)O2)c(=O)n1 [Decitabine] (partner 2 µM)
0.159
